Tested on: E. coli ATCC 25922
Type: cell-based, Escherichia coli
Settings: (Supplement 2)
Where a SMILES comes first, the peptide text is derived from it. [ ]: non-standard residue; d: D form. The star is where a group is joined. ξ: configuration not given here. Octanoyl(7-Me) = CC(C)CCCCCC(=O)*; Hexanoyl(4ξ-Me) = CCC(C)CCC(=O)*; dOrn = NCCC[C@@H](N)C(=O)O; Orn = NCCC[C@H](N)C(=O)O
# MIC (µg/mL) against E. coli (ATCC 25922) annotations
Record the value in µg/mL, omitting the unit from your answer.

Q: Provide one value: measured MIC (µg/mL) against E. coli (ATCC 25922) of CCC(C)CCC(=O)N[C@H](CC(N)=O)C(=O)N[C@H](Cc1ccc(O)cc1)C(=O)N[C@H](Cc1c[nH]c2ccccc12)C(=O)N[C@H](CCCN)C(=O)N[C@@H](CCCN)C(=O)NCC(=O)N[C@H](CCCN)C(=O)N[C@@H](Cc1c[nH]c2ccccc12)C(=O)N[C@@H](Cc1ccccc1)C(=O)N[C@H](C(=O)NCC(N)=O)[C@@H](C)CC (stereo partly drawn) [Δ12LB (Phe9)-NH2 (54)] ({Hexanoyl(4ξ-Me)}-[dN][dY][dW][dOrn][Orn]G[dOrn]WFIG-NH2)
Ans: 4

Q: Provide one value: measured MIC (µg/mL) against E. coli (ATCC 25922) of CC[C@H](C)[C@H](NC(=O)[C@H](Cc1ccccc1)NC(=O)[C@H](Cc1c[nH]c2ccccc12)NC(=O)[C@@H](CCCN)NC(=O)CNC(=O)[C@H](CCCN)NC(=O)[C@@H](CCCN)NC(=O)[C@@H](Cc1c[nH]c2ccccc12)NC(=O)[C@@H](Cc1ccc(O)cc1)NC(=O)[C@@H](CO)NC(=O)CCCCCC(C)C)C(=O)N[C@@H](CC(N)=O)C(=O)NCC(=O)NCC(N)=O [LL(Phe9)-NH2 (43)] ({Octanoyl(7-Me)}-[dS][dY][dW][dOrn][Orn]G[dOrn]WFINGG-NH2)
Ans: 4

Q: Provide one value: measured MIC (µg/mL) against E. coli (ATCC 25922) of CCC(C)CCC(=O)N[C@H](CC(N)=O)C(=O)N[C@H](Cc1ccc(O)cc1)C(=O)N[C@H](Cc1c[nH]c2ccccc12)C(=O)N[C@H](CCCN)C(=O)N[C@@H](CCCN)C(=O)NCC(=O)N[C@H](CCCN)C(=O)N[C@@H](Cc1c[nH]c2ccccc12)C(=O)N[C@@H](CC(N)=O)C(=O)N[C@H](C(=O)NCC(N)=O)[C@@H](C)CC (stereo partly drawn) [Δ12LB (Asn9)-NH2 (58)] ({Hexanoyl(4ξ-Me)}-[dN][dY][dW][dOrn][Orn]G[dOrn]WNIG-NH2)
Ans: 4
